Hello, the source for this data is PubChem BioAssay, in case you need it.

# TEST: growth effects on S. cerevisiae YJM789 – YJM789 clinical isolate, OD600, 24 h, basal, primary screen (AID 1089);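 further: growth of clinical yeast isolate S. cerevisiae YJM 789 seeded 1000 cells per well; test concentration not given here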
# REPORTED CONDITIONS: higher = more signal, called active from +8 up or from −8 down
Label yes (1) when z-score >= -0.6; otherwise no (0).

>>> category("COC(=O)[C@H](Cc1ccccc1)N1CC2=CCCC=C[C@@H]2[C@H]1[C@H](O)Cc1ccccc1")
"no (0)"
>>> category("O=C(NCCN1CCOCC1)[C@@H]1c2ccccc2C(=O)N(Cc2ccccc2C(F)(F)F)[C@H]1c1ccc(CO)cc1")
"yes (1)"
>>> category("CC(C)C(=C=CC[C@H](O)c1ccccc1OCCO)C[C@H](O)COCc1ccccc1")
"yes (1)"
>>> category("CO[C@H]1O[C@H](CO)[C@@H](OC(=O)Nc2ccccc2)[C@H](OC(=O)Nc2ccccc2)[C@H]1OC(=O)Nc1ccccc1")
"yes (1)"
>>> category("COc1ccc(CCNC(=O)[C@@H]2c3ccccc3C(=O)N(Cc3ccccc3OC)[C@H]2c2ccc(CO)cc2)cc1")
"no (0)"
>>> category("COCCCNC(=O)[C@@]1(CCS(=O)(=O)c2ccccc2)COC(c2ccc(OCCCO)cc2)=N1")
"yes (1)"
>>> category("CCC(CC)C(O)C1C=CC2C(=O)N(c3ccccc3)C(=O)C2N1Nc1ccccc1F (configuration not stated)")
"yes (1)"
>>> category("CC(C)C[C@@H]1NC(=O)[C@@]23C(=O)N[C@@H](Cc4ccccc4)C2[C@H](C)[C@@]2(C)O[C@H]2C3/C=C/C/C=C\\CNC(=O)CNC1=O (some centres not stated)")
"yes (1)"
>>> category("C=CC[C@]1(C(=O)NCC(O)CO)COC(c2ccc(OCCCO)cc2)=N1 (some centres not stated)")
"yes (1)"
>>> category("O=C(NCc1ccccc1)[C@@H]1c2ccccc2C(=O)N(Cc2ccc(OC(F)(F)F)cc2)[C@H]1c1ccc(CO)cc1")
"yes (1)"
>>> category("O=C(NCCN1CCOCC1)[C@@H]1c2ccccc2C(=O)N(Cc2ccc(OC(F)(F)F)cc2)[C@H]1c1ccc(CO)cc1")
"no (0)"
>>> category("COc1ccc([Si](C)(C)[C@@H]2[C@@H](CC(=O)N(CCO)Cc3ccccc3)O[C@]3(C(=O)N(Cc4ccc(N5C(=O)c6cccc7cccc5c67)cc4)c4ccccc43)[C@H]2C)cc1")
"yes (1)"
>>> category("COc1ccc([Si](C)(C)[C@H]2[C@H](CC(=O)N3Cc4ccccc4C[C@H]3CO)O[C@@]3(C(=O)N(c4ccccc4)c4ccccc43)[C@@H]2C)cc1")
"no (0)"
>>> category("COc1ccc([Si](C)(C)[C@@H]2[C@@H](CC(=O)N3CCC[C@H]3CO)O[C@]3(C(=O)N(Cc4ccc(N5CCOC5=O)cc4)c4ccccc43)[C@H]2C)cc1")
"no (0)"
>>> category("COc1ccc([Si](C)(C)[C@H]2[C@H](CC(=O)N3CCC[C@H]3CO)O[C@@]3(C(=O)N(Cc4ccc(N5CCCCC5=O)cc4)c4ccccc43)[C@@H]2C)cc1")
"yes (1)"
>>> category("COC(=O)[C@@]1(Cc2ccccc2)[C@H]2c3cc(C(=O)N(C)C)n(CCSC(=N)N)c3C[C@H]2CN1C(=O)c1ccccc1")
"yes (1)"
>>> category("CC(C)(C)N1CC=CC23O[C@@H]4C=CCCOC(=O)C4[C@H]2C(=O)N(CCCCCCO)[C@@H]3C1=O (some centres not stated)")
"yes (1)"
>>> category("C=C(COC)/C(=C/C[C@@H](OC(C)=O)c1ccccc1OCCO)c1cnc2ccccc2c1")
"yes (1)"
>>> category("[N-]=[N+]=Nc1ccccc1[C@@H]1OC(c2ccc(OCCCO)cc2)=N[C@]1(CCS(=O)(=O)c1ccccc1)C(=O)NCC(O)CO (some centres not stated)")
"yes (1)"
>>> category("C#CCN1[C@@H](Cc2ccccc2)C(=O)O[C@H](Cc2ccccc2)[C@@H]1/C=C/C1CC1")
"yes (1)"
>>> category("O=C1[C@H]2C=C(I)[C@H](C[C@@H]2OCCCCCCO)[C@@]12CO2")
"no (0)"
>>> category("C=CC[C@@]1(C(=O)OC)N=C(c2ccc(OCCCO)cc2)O[C@@H]1c1ccccc1N=[N+]=[N-]")
"no (0)"
>>> category("NCCCCCCNC(=O)[C@@H]1C[C@@H]2C(=O)N3CCC[C@H]3C(=O)N2[C@@H]1c1cccc(OCCO)c1")
"no (0)"
>>> category("CC(=O)c1ccc(C(O)C2C=CC3C(=O)N(c4ccccc4)C(=O)C3N2Nc2ccc(C(C)C)cc2)cc1 (configuration not stated)")
"yes (1)"
>>> category("C=C(/C(=C/C[C@@H](OC(C)=O)c1cccc(OCCO)c1)c1cnc2ccccc2c1)C(C)C")
"yes (1)"
>>> category("C=CCNC(=O)[C@@H]1[C@H]2C(=O)O[C@H](c3ccccc3)[C@H](c3ccccc3)N2[C@H](c2ccc(OCCO)cc2)[C@@]12C(=O)Nc1ccc(C#CC3(O)CCCCCC3)cc12")
"yes (1)"
